experiment: Unbound fraction; type: in vivo, human; conditions: human, plasma, oral, 300 mg, median value of individual mean fu%, severe hepatic impairment; plasma 6 and 12 hours postdose

# smiles-notation, fraction unbound
rows = [
    ("CCc1cc2c(cc1N1CCC(N3CCOCC3)CC1)C(C)(C)c1[nH]c3cc(C#N)ccc3c1C2=O", 0.00179),
]
